System: P. falciparum strain D6
Test description: SYBR green antiplasmodial assay, strain D6
Format: cell-based, Plasmodium falciparum
Setup conditions: Plasmodium falciparum, D6; read-out: P. falciparum strain D6, IC50
Measurement label: IC50 (nM)

Worked set:
{"columns": ["Molecule", "IC50, nM"],
 "data": [
  ["COc1cc2nc(C)c(-c3ccc(Oc4ccc(OC(F)(F)F)cc4)cc3)c(OC(=O)c3ccccc3)c2cc1Cl [ELQ-379]", 2.5],
  ["COc1cc2nc(C)c(-c3ccc(Oc4ccc(OC(F)(F)F)cc4)cc3)c(OC(=O)OCC3COC(C)(C)O3)c2cc1Cl (centres unmarked) [ELQ-374]", 2.7],
  ["COC(=O)Oc1c(-c2ccc(Oc3ccc(OC(F)(F)F)cc3)cc2)c(C)nc2cc(OC)c(Cl)cc12 [ELQ-336]", 2.5],
  ["COc1cc2[nH]c(C)c(-c3ccc(Oc4ccc(OC(F)(F)F)cc4)cc3)c(=O)c2cc1Cl [ELQ-300, reference compound]", 3.1],
  ["COc1cc2nc(C)c(-c3ccc(Oc4ccc(OC(F)(F)F)cc4)cc3)c(OC(=O)OCC3COC(=O)O3)c2cc1Cl (centres unmarked) [ELQ-373]", 3.1]
]}

[a] CCOC(=O)Oc1c(-c2ccc(Oc3ccc(OC(F)(F)F)cc3)cc2)c(C)nc2cc(OC)c(Cl)cc12 [ELQ-337]
[b] COc1cc2nc(C)c(-c3ccc(Oc4ccc(OC(F)(F)F)cc4)cc3)c(OC(=O)OC(C)(C)C)c2cc1Cl [ELQ-358]
[c] COc1cc2nc(C)c(-c3ccc(Oc4ccc(OC(F)(F)F)cc4)cc3)c(OC(=O)OC3CCS(=O)(=O)C3)c2cc1Cl (centres unmarked) [ELQ-355]
Write the entries in order, lowest recorded IC50 first. Ranked list of labels, please, in the requested order. a, c, b
(a: 2.5 nM, c: 3.9 nM, b: 6 nM)

###

Test system: P. falciparum strain D6
Test description: SYBR green antiplasmodial assay, strain D6
Format: cell-based, Plasmodium falciparum
Setup conditions: Plasmodium falciparum, D6; read-out: P. falciparum strain D6, IC50
Measurement label: IC50 (nM)

Known results for molecules:
{"columns": ["Structure", "IC50 (nM)"],
 "data": [
  ["COc1cc2nc(C)c(-c3ccc(Oc4ccc(OC(F)(F)F)cc4)cc3)c(OC(=O)C(C)(C)C)c2cc1Cl", 3.5],
  ["C=CCOC(=O)Oc1c(-c2ccc(Oc3ccc(OC(F)(F)F)cc3)cc2)c(C)nc2cc(OC)c(Cl)cc12", 2.5]
]}

[P] COc1cc2nc(C)c(-c3ccc(Oc4ccc(OC(F)(F)F)cc4)cc3)c(OC(=O)C(C)C)c2cc1Cl
[Q] COCCOC(=O)Oc1c(-c2ccc(Oc3ccc(OC(F)(F)F)cc3)cc2)c(C)nc2cc(OC)c(Cl)cc12
Would you mind telling me which has the lower recorded IC50 between P and Q ? // return label of chosen record Q
